- test.target: COVID S1 RBD Fc fusion (Antigen 1) (SARS-CoV-2), P0DTC2
- procedure.text: phage ELISA
- conditions: remark: other sources report otherwise
endpoint.name: specificity ELISA, fold over background (fold over background)

binder	quantitative.result
SARS-CoV-2 variant 1-4 (antibody, V domains shown) VH: EVQLLESGGGLVQPGGSLRLSCAASGFTFSSQAMSWVRQAPGKGLEWVSAISGSGGGTYYADSVKGRFTISRDNSKNTLYLQMNSLRAEDTAVYYCAKDRRFGEFDPWGQGTLVTVSS VL: QSALTQPASVSGSPGQSITISCTGTSSDVGTYNLVSWYQQHPGKAPKLMIYEGSQRPSGVSNRFSGSKSGNTASLTISGLQAEDEADYYCCSYAGSSSFVVFGGGTKLTVL	1.4
SARS-CoV-2 variant 1-32 (antibody, V domains shown) VH: EVQLLESGGGLVQPGGSLRLSCAASGFTFSSYAMYWVRQAPGKGLEWVSAISGSGGSTFYADSVKGRFTISRDNSKNTLYLQMNSLRAEDTAVYYCTRPPYGDYGDYWGQGTLVTVSS VL: QSALTQPASVSGSPGQSITISCTGTSSDVGGYNLVSWYQQHPGKAPKLMIYEGNKRPSGVSNRFSGSKSGNTASLTISGLQAEDEADYYCCSYAGSSTFPVVFGGGTKLTVL	1.5
SARS-CoV-2 variant 1-31 (antibody, V domains shown) VH: EVQLLESGGGLVQPGGSLRLSCAASGFTFSSYAMNWVRQAPGKGLEWVSAISGSGGSTFYADSVKGRFTISRDNSKNTLYLQMNSLRAEDTAVYYCTRPPYGDYGDYWGQGTLVTVSS VL: QSALTQPASVSGSPGQSITISCTGTSSDVGKYNLVSWYQQHPGKAPKLMIYEGSQRPSGVSNRFSGSKSGNTASLTISGLQAEDEADYYCCSYAGSRTPVVFGGGTKLTVL	1.3
SARS-CoV-2 variant 1-30 (antibody, V domains shown) VH: EVQLLESGGGLVQPGGSLRLSCAASGFTFSSYAMTWVRQAPGKGLEWVSAISGSGGSTFYADSVKGRFTISRDNSKNTLYLQMNSLRAEDTAVYYCTRPPYGDYGDYWGQGTLVTVSS VL: QSALTQPASVSGSPGQSITISCTGTSRDVGSYNLVSWYQQHPGKAPKLMIYEGTKRPSGVSNRFSGSKSGNTASLTISGLQAEDEADYYCCSYAGSRTPVVFGGGTKLTVL	1.7
SARS-CoV-2 variant 1-28 (antibody, V domains shown) VH: EVQLLESGGGLVQPGGSLRLSCAASGFTFSSYGMSWVRQAPGKGLEWVSAISGSGGGTYYADSVKGRFTISRDNSKNTLYLQMNSLRAEDTAVYYCASSSSWQFDYWGQGTLVTVSS VL: QSALTQPASVSGSPGQSITISCTGTSSGVGSYNLVSWYQQHPGKAPKLMIYEGSQRPSGVSNRFSGSKSGNTASLTISGLQAEDEADYYCCSYAGSSTHYVFGGGTKLTVL	1.1
